System: tRNA
EXPERIMENTAL PROTOCOL: Aminoacylation assay (tRNA charging)
Type: biochemical
REPORTED CONDITIONS: nsAA pAcF
TEST READOUT: kcat

Asked: kcat for pAcFRS.t2: pAcFRS variant R257C, F261E, SEQ ID NO: 4 (protein) MDEFEMIKRNTSEIISEEELREVLKKDEKSALIGFEPSGKIHLGHYLQIKKMIDLQNAGFDIIILLADLHAYLNQKGELDEIRKIGDYNKKVFEAMGLKAKYVYGSEFQLDKDYTLNVYRLALKTTLKRARRSMELIAREDENPKVAEVIYPIMQVNGCHYRGVDVAVGGMEQRKIHMLARELLPKKVVCIHNPVLTGLDGEGKMSSSKGNFIAVDDSPEEIRAKIKKAYCPAGVVEGNPIMEIAKYFLEYPLTIKCPEKEGGDLTVNSYEELESLFKNKELHPMRLKNAVAEELIKILEPIRKRL ?
Given back: 0.27 ± 0.07 ×10^−3 s^−1

Asked: Fill blank: measured kcat of the molecule pAcFRS.1.t2: pAcFRS variant A167D, R257C, F261E, SEQ ID NO: 6 (protein) MDEFEMIKRNTSEIISEEELREVLKKDEKSALIGFEPSGKIHLGHYLQIKKMIDLQNAGFDIIILLADLHAYLNQKGELDEIRKIGDYNKKVFEAMGLKAKYVYGSEFQLDKDYTLNVYRLALKTTLKRARRSMELIAREDENPKVAEVIYPIMQVNGCHYRGVDVDVGGMEQRKIHMLARELLPKKVVCIHNPVLTGLDGEGKMSSSKGNFIAVDDSPEEIRAKIKKAYCPAGVVEGNPIMEIAKYFLEYPLTIKCPEKEGGDLTVNSYEELESLFKNKELHPMRLKNAVAEELIKILEPIRKRL is ____.
Given back: 1.03 ± 0.06 ×10^−3 s^−1

Asked: Fill in: kcat of pAcFRS.2: pAcFRS variant L65V, A167D, SEQ ID NO: 7 (protein) MDEFEMIKRNTSEIISEEELREVLKKDEKSALIGFEPSGKIHLGHYLQIKKMIDLQNAGFDIIIVLADLHAYLNQKGELDEIRKIGDYNKKVFEAMGLKAKYVYGSEFQLDKDYTLNVYRLALKTTLKRARRSMELIAREDENPKVAEVIYPIMQVNGCHYRGVDVDVGGMEQRKIHMLARELLPKKVVCIHNPVLTGLDGEGKMSSSKGNFIAVDDSPEEIRAKIKKAYCPAGVVEGNPIMEIAKYFLEYPLTIKRPEKFGGDLTVNSYEELESLFKNKELHPMRLKNAVAEELIKILEPIRKRL is ___
Given back: 0.58 ± 0.09 ×10^−3 s^−1

Asked: Recorded kcat of pAcFRS.t1: pAcFRS variant R257G, SEQ ID NO: 3 (protein) MDEFEMIKRNTSEIISEEELREVLKKDEKSALIGFEPSGKIHLGHYLQIKKMIDLQNAGFDIIILLADLHAYLNQKGELDEIRKIGDYNKKVFEAMGLKAKYVYGSEFQLDKDYTLNVYRLALKTTLKRARRSMELIAREDENPKVAEVIYPIMQVNGCHYRGVDVAVGGMEQRKIHMLARELLPKKVVCIHNPVLTGLDGEGKMSSSKGNFIAVDDSPEEIRAKIKKAYCPAGVVEGNPIMEIAKYFLEYPLTIKGPEKFGGDLTVNSYEELESLFKNKELHPMRLKNAVAEELIKILEPIRKRL , please.
Given back: 0.22 ± 0.02 ×10^−3 s^−1

Data origin, for the record: patent US10501734B2
